B1: Kinesin-like protein KIF16B, residues 1213 to 1273; numbered along this chain, Q96L93 (parent)
chain: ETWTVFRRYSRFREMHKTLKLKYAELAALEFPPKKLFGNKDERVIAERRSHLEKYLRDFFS

variants of: B1; assay: abundance fitness (aPCA) (normalised: wild type 0, dead -1); higher = more abundant; growth selection in yeast, the domain comes from the species named; details: Homo sapiens
Hi there, I'd appreciate the recorded abundance fitness for every entry that follows.

Req: Param item = E42F ; retrieve measured abundance fitness.
Resp: 0.224

Req: Record request: abundance fitness value, item W3R
Resp: -0.232

Req: Can you share its abundance fitness? I mean this variant: P32Q
Resp: -0.243

Req: Fill in: abundance fitness of Y23Q is ___
Resp: -0.393

Req: Which abundance fitness reading was recorded for the variant T4K ?
Resp: -0.15

Req: Value lookup for abundance fitness; key = T4P
Resp: -0.102

Req: Give its abundance fitness value. Item: E25K
Resp: -0.144

Req: Query: abundance fitness; subject: H16D
Resp: -0.835

Req: Recorded abundance fitness for H51K , please?
Resp: 0.376

Req: Please give the measured abundance fitness for this variant: R48T
Resp: -0.363

Req: # lookup: abundance fitness of G38Y
Resp: -0.8

Req: # query: abundance fitness of entry A27F
Resp: -0.215

Req: Consider the variant shown here: L26Q What is its recorded abundance fitness?
Resp: -1.04

Req: Request the reported abundance fitness associated with H16I
Resp: 0.452

Req: So what does the record say about abundance fitness for N39K ?
Resp: 0.203

Req: Quick one: abundance fitness for A27M ?
Resp: 0.246

Req: Given K35I , state its recorded abundance fitness.
Resp: -0.521

Req: Which abundance fitness is reported for this variant? F12A
Resp: -0.271

Req: GET /values?readout=abundance fitness&item= E53A
Resp: 0.191

Req: Could you share which abundance fitness value was measured for S50W ?
Resp: 0.117

Req: Using the record for F60V , report its abundance fitness.
Resp: -0.165

Req: Which abundance fitness value belongs to E14I ?
Resp: -0.867

Req: For the variant shown here, L52I , give the reported abundance fitness.
Resp: -0.092

Req: Please look up its abundance fitness: E14G
Resp: -0.183

Req: Which abundance fitness value is on record for Y55N ?
Resp: -0.249

Req: // lookup abundance fitness for Y9P
Resp: 0.129

Req: Fill in: abundance fitness of E1W is ___
Resp: -0.421

Req: Requested field: abundance fitness. Item: F31I
Resp: -0.64

Req: For N39M , what is its reported abundance fitness?
Resp: -0.063

Req: GET /values?readout=abundance fitness&item= R57T
Resp: -0.309

Req: I am curious: what abundance fitness value has been reported for D58I ?
Resp: 0.012
